Catalogue of molecules with associated IC50
target: USP1/UAF1 enzyme (Homo sapiens); experiment: USP1/UAF1 deubiquitination assay (ubiquitin-rhodamine 110 substrate); assay type: biochemical; conditions: read-out: USP1 IC50 (Ub-Rho)
Sequence (O94782 whole entry): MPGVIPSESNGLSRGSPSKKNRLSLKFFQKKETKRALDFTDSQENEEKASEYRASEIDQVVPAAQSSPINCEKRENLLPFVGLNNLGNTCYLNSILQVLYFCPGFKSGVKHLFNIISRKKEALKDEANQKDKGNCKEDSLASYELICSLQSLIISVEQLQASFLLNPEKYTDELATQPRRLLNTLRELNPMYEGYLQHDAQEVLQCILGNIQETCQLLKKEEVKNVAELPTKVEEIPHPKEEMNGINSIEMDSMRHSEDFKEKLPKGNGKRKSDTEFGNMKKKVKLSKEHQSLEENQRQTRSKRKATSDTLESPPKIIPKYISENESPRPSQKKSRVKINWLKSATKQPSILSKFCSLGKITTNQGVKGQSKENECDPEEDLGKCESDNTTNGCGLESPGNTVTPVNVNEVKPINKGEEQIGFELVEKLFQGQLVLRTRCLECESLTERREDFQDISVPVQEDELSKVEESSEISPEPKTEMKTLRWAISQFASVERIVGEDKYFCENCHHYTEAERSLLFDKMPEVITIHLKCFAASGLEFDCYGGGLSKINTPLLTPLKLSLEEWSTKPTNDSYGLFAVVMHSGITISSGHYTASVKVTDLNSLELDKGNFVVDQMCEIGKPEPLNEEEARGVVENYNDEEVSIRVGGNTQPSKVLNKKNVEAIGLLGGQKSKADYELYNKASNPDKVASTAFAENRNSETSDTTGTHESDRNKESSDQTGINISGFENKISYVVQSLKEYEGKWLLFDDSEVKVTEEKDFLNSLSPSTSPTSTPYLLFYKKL
Sequence (Q8TAF3 whole entry partner): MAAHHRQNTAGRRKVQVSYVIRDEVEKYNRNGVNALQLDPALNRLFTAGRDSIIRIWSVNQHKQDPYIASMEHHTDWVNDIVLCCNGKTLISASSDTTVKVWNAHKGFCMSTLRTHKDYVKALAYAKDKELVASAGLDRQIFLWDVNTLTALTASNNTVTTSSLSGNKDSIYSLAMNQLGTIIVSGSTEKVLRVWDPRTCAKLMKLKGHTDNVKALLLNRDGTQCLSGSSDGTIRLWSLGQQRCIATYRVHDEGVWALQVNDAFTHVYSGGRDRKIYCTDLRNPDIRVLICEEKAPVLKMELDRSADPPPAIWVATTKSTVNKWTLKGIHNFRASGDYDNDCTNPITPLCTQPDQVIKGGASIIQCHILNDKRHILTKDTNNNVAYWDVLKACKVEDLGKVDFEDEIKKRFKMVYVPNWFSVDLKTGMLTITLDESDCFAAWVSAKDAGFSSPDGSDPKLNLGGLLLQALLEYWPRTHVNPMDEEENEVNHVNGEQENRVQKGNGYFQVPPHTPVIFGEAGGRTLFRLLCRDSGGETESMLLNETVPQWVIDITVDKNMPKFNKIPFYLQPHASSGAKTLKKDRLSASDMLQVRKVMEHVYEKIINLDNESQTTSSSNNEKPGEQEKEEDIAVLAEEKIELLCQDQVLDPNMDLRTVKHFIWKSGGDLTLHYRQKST

[[record]]
smiles_representation = "CCn1cc(C(F)(F)F)nc1-c1ccc(CN2C(=O)CCn3nc(-c4c(OC)ncnc4C4CC4)nc32)cc1OC(F)F"
endpoint_value = "100 to 500 nM"

[[record]]
smiles_representation = "COc1c(C)ccnc1-c1ccc(CN2C(=O)CCn3nc(-c4c(Cl)cnn4C(C)C)cc32)cc1Cl"
endpoint_value = "100 to 500 nM"


Alright, here's another molecule for you.
Data request: Indicate the recorded IC50 value for this molecule: [2H]C([2H])([2H])C([2H])([2H])n1cc(C(F)(F)F)nc1-c1ccc(CN2C(=O)CCn3nc(-c4c(OC(F)F)ncnc4C4CC4)nc32)cc1
Data returned: < 100 nM
